The values you see were collected from patent US20240108602A1.

# assay-info: Plasma binding of 5-MIAA (unbound fraction)
# Type: in vitro ADME
# cond: human, read-out: Mean fu
measured-property: fraction unbound

mol_smiles=COc1ccc2[nH]cc(CC(=O)O)c2c1 experimental_result=0.502

* * *

# assay-info: 5-MeO-DMT, 5-MIAA and bufotenine in urine, serum and breastmilk of a lactating PPD patient, LC-MS/MS
# cond: female, human, urine, inhaled
measured-property: concentration at 2.5 h (ng/mL)

mol_smiles=COc1ccc2[nH]cc(CC(=O)O)c2c1 experimental_result=13000

* * *

# assay-info: Plasma binding of 5-MIAA (unbound fraction)
# Format: in vitro ADME
# cond: human, read-out: unbound fraction (fu), Replicate 1
measured-property: fraction unbound

mol_smiles=COc1ccc2[nH]cc(CC(=O)O)c2c1 experimental_result=0.499

* * *

# assay-info: 5-MeO-DMT, 5-MIAA and bufotenine in urine, serum and breastmilk of a lactating PPD patient, LC-MS/MS
# cond: female, human, breast milk, inhaled
measured-property: concentration at 8.5 h (ng/mL)

mol_smiles=COc1ccc2[nH]cc(CC(=O)O)c2c1 experimental_result=0.359
